Test: Toxicity in human NCM460 cells assessed as cell viability at 2.5 umol/L incubated for 24 hrs by MTT assay relative to control
Format: cell-based
Settings: dose 2.5 µmol/L, read-out: Activity
Answer each item with its documented viability at 24 h, 2.5 µM.

Prompt: Fill in the blank: the reported viability at 24 h, 2.5 µM of O=C(/C=C/c1ccc(O)cc1)c1ccc(O)cc1O [ISOLIQUIRITIGENIN] is ____.
Completion: > 90%

Prompt: Fill in the blank: the reported viability at 24 h, 2.5 µM of O=c1c2cc(O)c(O)cc2oc2cc(O)c([C@@H]3O[C@H](CO)[C@@H](O)[C@H](O)[C@H]3O)c(O)c12 [MANGIFERIN] is ____.
Completion: > 90%

Prompt: Fill in the blank: the reported viability at 24 h, 2.5 µM of COc1cc(C2Oc3ccc([C@H]4Oc5cc(O)cc(O)c5C(=O)[C@@H]4O)cc3OC2CO)ccc1O (stereo partly drawn) is ____.
Completion: > 90%
